Task for the reader: assign each of the following molecules its reported activity change, negative = inhibition.
Experiment: qHTS Assay for Lipid Storage Modulators (AID 1519); note: % is set by controls: 0 for no effect and ±100 for the full control effect
Details: Drosophila S3 cells, BODIPY lipid droplet/cell ratio, laser cytometry; at 57.5 µM (top of the series); cells loaded with oleic acid
Inconclusive results are not listed.
Form entry: value (%) — number only.

The reported value for CC(=O)OC1C(=O)[C@@]2(C)C(O)CC3OC[C@]3(OC(C)=O)C2C(OC(=O)c2ccccc2)[C@]2(O)CC(OC(=O)C(O)C(NC(=O)c3ccccc3)c3ccccc3)C(C)=C1C2(C)C (stereo not given in full) in terms of activity change, negative = inhibition is -3.78

For "CCOC(=O)c1c(C)cc(O)c(C=O)c1O" the molecule record lists activity change, negative = inhibition as 7.6

Lookup result for CC(=O)OC1C[C@]2(C)C(C(C)=O)CCC2C2CCC3=CC(=O)CC[C@@]3(C)C12 (stereo not given in full) ; measured activity change, negative = inhibition: 9.05

activity change, negative = inhibition for COc1ccc(C(C)C(=O)c2ccc(O)cc2O)cc1 (stereo not given) is 0.578

GET /value?item= C=C1C(N)CC2CC1C2(C)C (stereo not given) &field=activity change, negative = inhibition returns 1.08

###

Test system: CP211
Assay: qHTS profiling for inhibitors of Plasmodium falciparum proliferation (AID 504749); note: nearly all actives have a fitted effect of over 60% in size
Details: P. falciparum in erythrocytes, SYBR Green DNA, 72 h; series mostly up to 12.8 µM
Results filed as inconclusive are left out. The source made the active and inactive calls. Calls follow the shape of the dose curve; as a rule, active = well fitted inhibition curve with a large enough effect; inconclusive = small, poorly fitted or top-dose-only effect; inactive = flat fitted curve, though single readings scatter.
Please answer using one outcome listed in true (1) = active, false (0) = inactive

INPUT: What was the test verdict on "CCC(=O)O[C@@]1(C(=O)SCF)[C@@H](C)C[C@H]2[C@@H]3C[C@@H](F)C4=CC(=O)C=C[C@@]4(C)[C@]3(F)[C@@H](O)C[C@]21C" ?
OUTPUT: false (0)

INPUT: GET /call?item= "NS(=O)(=O)c1cc2c(cc1C(F)(F)F)N[C@H](Cc1ccccc1)NS2(=O)=O" returns the recorded outcome of this test.
OUTPUT: false (0)

INPUT: Field: outcome | Entry: "CC(=O)O[C@H]1C[C@@]2(C)[C@H](C[C@@H](O)[C@H]3[C@@]4(C)CC[C@@H](O)[C@@H](C)[C@H]4CC[C@@]32C)C1=C(CCC=C(C)C)C(=O)O"
OUTPUT: false (0)

INPUT: So what was the verdict on "CC[C@H](Cc1c(I)cc(I)c(N)c1I)C(=O)O" in this test?
OUTPUT: false (0)

INPUT: Assay outcome for "O=C(Nc1ccccc1)OC[C@H](CN1CCCCC1)OC(=O)Nc1ccccc1" : what was it?
OUTPUT: false (0)

INPUT: Which outcome was assigned to "CC(=O)OCC(=O)[C@@]1(O)[C@H](C)C[C@@H]2[C@H]3CCC4=CC(=O)C=C[C@]4(C)[C@]3(F)[C@@H](O)C[C@@]21C" in this test?
OUTPUT: false (0)

INPUT: Outcome logged for "Cc1ccc(S(=O)(=O)NC(=O)NN2C[C@H]3CCC[C@@H]3C2)cc1" in this assay:
OUTPUT: false (0)

INPUT: Could you kindly confirm the outcome this assay logged for "C[C@H](C(=O)O)c1cccc(Oc2ccccc2)c1" ?
OUTPUT: false (0)

INPUT: Outcome? NC(C(=O)O)[C@@H]1CC(Cl)=NO1 (some centres undefined)
OUTPUT: true (1)
